biological target: T1, human claudin 18 splice variant 2 (CLDN18.2) (human); assay: flow cytometry, HEK293 cells stably expressing CLDN18.2; APC-conjugated secondary antibody; binding assay 3
T1 construct: also called claudin 18 isotype 2
For each of the binders below, state its EC50.
Reply with a number, then the unit it belongs to.

BINDER: mu mAB62 (antibody, mouse IgG2a, V domains shown, mouse IgG2a kappa) VH: QVQLQQSGAELMKPGASVKISCKATGYTFSSYWIEWVKQRPGHGLEWIGEILPGSGSTNYNEKFKGKATFTADTSSNTAYMQLSSLTSEDSAVYYCARYDYPWFAYWGQGTLVTVSA VL: QIVLTQSPAIMSASPGEKVTITCSASSSVSYMHWFQQKPGTSPKLWIYSTSNLASGVPARFSGSGSGTSYSLTISRMEAEDAATYYCQQRSSYPPTFGGGTKLEIK
RESULT: 27.9 µg/mL
//
BINDER: mu mAB279 (antibody, mouse IgG2a, V domains shown, mouse IgG2a kappa) VH: QVQLQQSGAELARPGASVKLSCKASGYTFTDYYINWVKQRTGQGLEWIGEIYPGSGNTYYNEKFKGKATLTADKSSSTAYMQLSSLTSEDSAVYFCARSYGAFDYWGQGTTLTVSS VL: DIVMTQSQKFMSTSVGDRVSITCKASQNVRTAVAWYQQKPGQSPKALIYLASNRHTGVPDRFTGSGSGTDFTLTISNVQSEDLADYFCLQHWNYPLTFGGGTKLEIK
RESULT: 0.027 µg/mL
//
BINDER: IMAB362 (antibody, V domains shown, Chimeric human IgG1 kappa; CDR1 at 45-52); also called chim mAb362; chim mAB362) VH: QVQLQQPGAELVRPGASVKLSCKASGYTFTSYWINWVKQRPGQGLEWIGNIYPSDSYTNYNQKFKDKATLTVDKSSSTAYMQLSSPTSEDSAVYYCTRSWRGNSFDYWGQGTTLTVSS VL: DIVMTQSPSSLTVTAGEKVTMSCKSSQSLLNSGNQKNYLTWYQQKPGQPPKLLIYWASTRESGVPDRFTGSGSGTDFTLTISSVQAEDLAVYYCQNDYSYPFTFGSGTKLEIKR
RESULT: 0.652 µg/mL

Kindly review the next binder as well.
Record mu mAB294 (antibody, V domains shown, Tied by its number) VH: QIQLVQSGPELKKPGETVKISCKASGYTFTNYGMNWVKQAPGKGLKWMGWINTNTGEPTYAEEFKGRFAFSLETSASTAYLQINNLKNEDTATYFCARLGFGNAMDYWGQGTSVTVSS VL: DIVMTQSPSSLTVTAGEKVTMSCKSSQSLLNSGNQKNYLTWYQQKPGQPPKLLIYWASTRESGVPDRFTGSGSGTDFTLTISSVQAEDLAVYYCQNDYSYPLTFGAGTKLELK . Reported EC50: 0.348 µg/mL
